Reference source for all entries: patent US20230374132A1

// reported kon for each item listed
target: T1, human CD3E&G complex (Sino Biological Inc., CT041-H0305H) (human, UniProt P07766 23-126; P09693 23-116); experiment: BLI, antibody on sensor
T1 construct: bought heterodimer; also called human CD3E&G antigen
T1 sequence (P07766 23-126, chain 1 of 2): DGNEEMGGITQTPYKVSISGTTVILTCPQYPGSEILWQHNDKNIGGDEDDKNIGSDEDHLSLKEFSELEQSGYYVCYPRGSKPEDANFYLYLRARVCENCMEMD
T1 sequence (P09693 23-116, chain 2 of 2): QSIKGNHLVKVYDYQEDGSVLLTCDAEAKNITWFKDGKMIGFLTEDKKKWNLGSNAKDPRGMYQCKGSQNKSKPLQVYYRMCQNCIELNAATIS
State just the number; it will be interpreted in M⁻¹ s⁻¹.

Use the examples below as a reference point.
hzsp34.84 (antibody, human IgG1, lambda, L234A L235A, V domains shown, CDR mutant of hzsp34.24; IgG1 L234A L235A, lambda) VH: EVQLVESGGGLVQPGGSLKLSCAASGFTFNTYAMNWVRQASGKGLEWVGRIRSKYGNYATYYADSVKDRFTISRDDSKSTLYLQMNSLKTEDTAVYYCARHGNFGQSYVSWFAYWGQGTTVTVSS VL: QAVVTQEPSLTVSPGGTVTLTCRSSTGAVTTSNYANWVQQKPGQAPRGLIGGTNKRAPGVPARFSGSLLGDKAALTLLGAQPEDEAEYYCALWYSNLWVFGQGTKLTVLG    233000
hzsp34.89 (antibody, human IgG1, lambda, L234A L235A, V domains shown, CDR mutant of hzsp34.24; IgG1 L234A L235A, lambda) VH: EVQLVESGGGLVQPGGSLKLSCAASGFTFNTYAMNWVRQASGKGLEWVGRIRSKYNNYATYYADSVKDRFTISRDDSKSTLYLQMNSLKTEDTAVYYCARHGNAGQSYVSWFAYWGQGTTVTVSS VL: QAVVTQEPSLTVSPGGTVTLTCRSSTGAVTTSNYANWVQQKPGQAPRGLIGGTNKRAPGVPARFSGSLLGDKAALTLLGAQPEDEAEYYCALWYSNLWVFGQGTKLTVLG    205000
hzsp34.112 (antibody, human IgG1, lambda, L234A L235A, V domains shown, CDR mutant of hzsp34.24; IgG1 L234A L235A, lambda) VH: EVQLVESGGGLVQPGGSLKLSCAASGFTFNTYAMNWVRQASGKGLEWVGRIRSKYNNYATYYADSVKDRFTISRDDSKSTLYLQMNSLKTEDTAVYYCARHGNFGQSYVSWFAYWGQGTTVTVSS VL: QAVVTQEPSLTVSPGGTVTLTCRSSTGAVTTRGYANWVQQKPGQAPRGLIGGTNKRAPGVPARFSGSLLGDKAALTLLGAQPEDEAEYYCALWYSNLWVFGQGTKLTVLG    235000
hzsp34.78 (antibody, human IgG1, lambda, L234A L235A, V domains shown, CDR mutant of hzsp34.24; IgG1 L234A L235A, lambda) VH: EVQLVESGGGLVQPGGSLKLSCAASGFTFGTYAMNWVRQASGKGLEWVGRIRSKYNNYATYYADSVKDRFTISRDDSKSTLYLQMNSLKTEDTAVYYCARHGNFGQSYVSWFAYWGQGTTVTVSS VL: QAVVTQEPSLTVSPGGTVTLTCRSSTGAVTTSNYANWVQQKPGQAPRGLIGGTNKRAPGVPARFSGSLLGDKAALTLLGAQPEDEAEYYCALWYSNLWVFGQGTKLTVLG    250000

Using the record for hzsp34.104 (antibody, human IgG1, lambda, L234A L235A, V domains shown, CDR mutant of hzsp34.24; IgG1 L234A L235A, lambda) VH: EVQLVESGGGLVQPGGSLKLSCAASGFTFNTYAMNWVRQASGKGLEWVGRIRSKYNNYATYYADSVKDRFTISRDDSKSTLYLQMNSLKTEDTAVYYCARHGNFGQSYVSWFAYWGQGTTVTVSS VL: QAVVTQEPSLTVSPGGTVTLTCRSSTGAVTGSNYANWVQQKPGQAPRGLIGGTNKRAPGVPARFSGSLLGDKAALTLLGAQPEDEAEYYCALWYSNLWVFGQGTKLTVLG , report its kon.
231000
